Target: T1, N15 Cro-His6 (bacteriophage N15, UniProt Q37964 1-71)
T1 sequence: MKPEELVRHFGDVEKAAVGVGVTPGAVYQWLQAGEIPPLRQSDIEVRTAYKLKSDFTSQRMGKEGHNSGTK
Test: EMSA
OBSERVED PROPERTY: Kd (nM)

{"BINDER": "N15 OR3 28 bp (dsDNA) DNA 1: GCAAAATTATAGCCAGCTATAAAGAGCG DNA 2: CGCTCTTTATAGCTGGCTATAATTTTGC", "NUMERIC READOUT": 91}

Recorded values, source paper PMC6649833.
